Tested on: DeltatarO mutant
Test: S. aureus survival, RN4220 and DeltatarO strains – OD600, teichoic acid synthesis inhibitors, primary screen (AID 463173)
Details: S. aureus RN4220 wild type/DeltatarO growth, OD600, 18 h, screened at 18.75 µg/mL (by protocol)
Screen size: about 52,000 compounds; about 4,300 (8.3%) were called active. Cut-off read from the data, not from the text of the source: active = survival mostly below about 52% (no sharp cut-off); inactive = mostly above about 56%. The entries come from a sample that favours actives as a whole.
// classify into active, inactive

{"MOLECULE": "COc1ccc(N2CC(NC(=O)CCCc3ccccc3)CC2=O)cc1 (stereo unspecified)", "TARGET OR SYSTEM": "DeltatarO mutant", "ASSIGNED LABEL": "active"}
{"MOLECULE": "O=C(NCc1ccccc1)C(c1ccco1)N(C(=O)c1csnn1)c1ccccc1 (stereo unspecified)", "TARGET OR SYSTEM": "DeltatarO mutant", "ASSIGNED LABEL": "inactive"}
{"MOLECULE": "CCCCNc1cc(N2CCN(C3CCCCC3)CC2)c2noc3c2c1C(=O)c1ccccc1-3", "TARGET OR SYSTEM": "DeltatarO mutant", "ASSIGNED LABEL": "active"}

## Task Check the results log: what was the call for COc1ccc(N2CC(NC(=O)c3ccc(OC(C)C)cc3)CC2=O)cc1 (stereo unspecified) ?
## Result active

## Task Check the results log: what was the call for COc1cccc(N2CC(NC(=O)CCCc3ccccc3)CC2=O)c1 (stereo unspecified) ?
## Result inactive

## Task Check the results log: what was the call for O=C(CCc1ccccc1)NC1CC(=O)N(c2ccccc2)C1 (stereo unspecified) ?
## Result inactive

----------
Tested on: DeltatarO mutant
Experiment: S. aureus survival, RN4220 and DeltatarO strains – OD600, teichoic acid synthesis inhibitors, primary screen (AID 463173)
Conditions: S. aureus RN4220 wild type/DeltatarO growth, OD600, 18 h, stronger effect = lower value, screened at 18.75 µg/mL (by protocol)
Screen size: about 52,000 compounds; about 4,300 (8.3%) were called active. For the sample, actives were picked, then their nearest neighbours and some compounds at random.
Use survival to assign classes; range list: low: < 60%; middle: ≥ 60% and < 90%; high: ≥ 90%

{"COMPOUND": "CC(=O)c1cccc(NS(=O)(=O)c2cc3c(cc2C)N(C(C)=O)CCO3)c1", "ASSIGNED LABEL": "high"}
{"COMPOUND": "CCOc1cc(C2Nc3ccccc3-c3nnc(SCc4ccccc4)nc3O2)ccc1OC (stereo not given)", "ASSIGNED LABEL": "low"}
{"COMPOUND": "COc1cc(OC)c(C2Nc3ccccc3-c3nnc(SCc4ccccc4)nc3O2)cc1OC (stereo not given)", "ASSIGNED LABEL": "low"}
{"COMPOUND": "COc1cccc(C2Nc3ccccc3-c3nnc(SCc4ccccc4)nc3O2)c1OC (stereo not given)", "ASSIGNED LABEL": "high"}
{"COMPOUND": "Cc1ccc(CNc2oc(-c3ccc(COc4ccc(C)cc4)o3)nc2C#N)cc1", "ASSIGNED LABEL": "middle"}

## Task Lab note: sort CCOc1ccc(C2Nc3ccccc3-c3nnc(SCc4ccccc4)nc3O2)cc1OC (stereo not given) into the matching survival band.
## Result low

## Task Lab note: sort O=C(C1CCCN(S(=O)(=O)c2cccs2)C1)N1CCN(c2ccccc2F)CC1 (stereo not given) into the matching survival band.
## Result middle

## Task Lab note: sort `CCOc1cc(S(=O)(=O)N(C)C2CCCCC2)c(OCC)cc1-n1cnnn1` into the matching survival band.
## Result high

## Task Lab note: sort O=C(O)COc1ccccc1C1Nc2ccccc2-c2nnc(SCc3ccc(Cl)cc3)nc2O1 (stereo not given) into the matching survival band.
## Result middle
